Quick record of IC50 values for Spindlin1 (Spin1).

>  <compound>
CC(C)Oc1cc2c(cc1OCCCN1CCCC1)N=C(N)C21CCC1

>  <IC50>
3300 nM

$$$$
>  <compound>
COc1cc2c(cc1OCCCN1CCCC1)N=C(N)C2(C)C

>  <IC50>
157 nM

$$$$
>  <compound>
CCC1(C)C(N)=Nc2cc(OCCCN3CCCC3)c(OC)cc21 (stereo not drawn)

>  <IC50>
408 nM

$$$$
>  <compound>
CCC1(C)C(N)=Nc2cc(OCCCN3CC[C@@H](C)C3)c(OC)cc21 (stereo partly drawn)

>  <IC50>
467 nM

$$$$
>  <compound>
COc1c(OCCCN2CCCC2)cc2c(c1OC)C1(CCCC1)C(N)=N2

>  <IC50>
2500 nM

$$$$
>  <compound>
COc1cc2c(cc1OCCCN1CCCC1)N=C(N)C21CCCCC1

>  <IC50>
255 nM

$$$$

* * *

Reported IC50 values for the following molecules.
# tgt: GLP (982–1266) (Homo sapiens)
# Sequence (Q9H9B1 982-1266): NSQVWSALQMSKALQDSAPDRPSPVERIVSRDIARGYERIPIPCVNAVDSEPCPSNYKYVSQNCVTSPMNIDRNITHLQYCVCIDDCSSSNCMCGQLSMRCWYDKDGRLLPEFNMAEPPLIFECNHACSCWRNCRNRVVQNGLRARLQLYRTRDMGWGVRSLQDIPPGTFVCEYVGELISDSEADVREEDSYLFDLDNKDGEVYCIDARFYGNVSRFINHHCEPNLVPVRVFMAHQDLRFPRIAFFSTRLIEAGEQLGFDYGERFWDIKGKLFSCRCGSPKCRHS

>  <molecule>
COc1c(OCCCN2CCCC2)cc2c(c1Cl)C1(CCCC1)C(N)=N2

>  <IC50>
> 20 µM

$$$$
>  <molecule>
CCC1(CC)C(N)=Nc2cc(OCCCN3CCCC3)c(OC)cc21

>  <IC50>
> 20 µM

$$$$
>  <molecule>
CCC1(C)C(N)=Nc2cc(OCCCN3CC[C@@H](C)C3)c(OC)cc21 (stereo partly drawn)

>  <IC50>
> 20 µM

$$$$

* * *

# tgt: GLP (982–1266) (Homo sapiens)
# Sequence (Q9H9B1 982-1266): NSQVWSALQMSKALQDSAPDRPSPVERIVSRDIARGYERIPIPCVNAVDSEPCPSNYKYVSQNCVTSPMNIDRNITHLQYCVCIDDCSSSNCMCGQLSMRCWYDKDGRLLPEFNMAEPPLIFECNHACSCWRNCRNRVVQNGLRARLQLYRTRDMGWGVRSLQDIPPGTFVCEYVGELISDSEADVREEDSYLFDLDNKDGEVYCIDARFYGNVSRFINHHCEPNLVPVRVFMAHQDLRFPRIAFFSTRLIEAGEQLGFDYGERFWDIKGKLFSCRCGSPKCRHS

>  <compound>
COc1cc2c(cc1OCCCN1CCC(CO)C1)N=C(N)C21CCCC1 (stereo not drawn)

>  <IC50>
> 20 µM

$$$$
>  <compound>
COc1cc2c(cc1OCCCCN1CCCC1)N=C(N)C21CCCCC1

>  <IC50>
> 20 µM

$$$$
>  <compound>
CCC1(C)C(N)=Nc2cc(OCCCN3Cc4ccccc4C3)c(OC)cc21 (stereo not drawn)

>  <IC50>
> 20 µM

$$$$

Numbers sourced from paper PMC8199216.
